Test: Serum KRN7000 levels by LC-MS/MS after intravenous administration to HCV-infected chimpanzees
Format: in vivo
Details: chimpanzee, serum, iv, 10 μg/kg, Animal C33, second administration (10 μg/kg i.v., day 28), 6 hours later; read-out: Concentration in blood (serum KRN7000 level)
PARAMETER: concentration at 6 h (ng/mL)

[[record]]
molecule = "CCCCCCCCCCCCCCCCCCCCCCCCCC(=O)N[C@@H](CO[C@H]1O[C@H](CO)[C@H](O)[C@H](O)[C@H]1O)[C@H](O)[C@H](O)CCCCCCCCCCCCCC"
observed_value = 58


###

Assay: Serum KRN7000 levels by LC-MS/MS after intravenous administration to HCV-infected chimpanzees
Assay type: in vivo
Settings: chimpanzee, serum, iv, 10 μg/kg, Animal C33, first administration (10 μg/kg i.v., day 0), 6 hours later; read-out: Concentration in blood (serum KRN7000 level)
Protocol: Chimpanzees are the only test animals that can be persistently infected with hepatitis C viruses. […] After an acclimation period of approximately 1 month, KRN7000 was intravenously administered two times to animals at the rate of 10 μg/kg at the interval of 28 days (day 0 and day 28). […] The total leukocyte count was measured using an automated blood cell counter Sysmex K4500 (Sysmex Corporation). […]
PARAMETER: concentration at 6 h

[[record]]
molecule = "CCCCCCCCCCCCCCCCCCCCCCCCCC(=O)N[C@@H](CO[C@H]1O[C@H](CO)[C@H](O)[C@H](O)[C@H]1O)[C@H](O)[C@H](O)CCCCCCCCCCCCCC"
parameter = "concentration at 6 h"
observed_value = "38 ng/mL"


Hello, the source for this data is patent US20050159365A1, in case you need it.
